- System: tracheal secretion of phenol red in mice
- protocol notes: Tracheal secretion of phenol red in male mice (Engler and Szelenyi method)
- Type: in vivo
- applied conditions: p.o., 30 minutes, mice
recorded endpoint: effect on tracheal secretion of phenol red, dose dependence

- CC(=O)N[C@@H](CS)C(=O)O: dose-dependent increase
- [I-].[K+] [Potassium Iodide, potassium iodide]: dose-dependent increase
- CC(C)(C)NCC(O)c1ccc(O)c(CO)c1 (stereo not shown): dose-dependent increase
